# target of assay: Mcl-1 (Homo sapiens (Human))
# Sequence (Q07820 172-327): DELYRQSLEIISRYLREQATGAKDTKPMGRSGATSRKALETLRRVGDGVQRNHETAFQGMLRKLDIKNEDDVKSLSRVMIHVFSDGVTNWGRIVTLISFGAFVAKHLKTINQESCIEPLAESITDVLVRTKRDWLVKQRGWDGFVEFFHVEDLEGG
# test method notes: TR-FRET binding assay, FITC-Bak peptide and MBP-tagged Mcl-1
# reported conditions: read-out: Ki for Inhibition of Mcl-1 by TR-FRET assay
measurement type: Ki

compound=COc1ccc(N2C[C@@H](C)n3c(c(CCCOc4cc(C)c(Cl)c(C)c4)c4ccc(Cl)c(-c5c(C)nn(C)c5C)c43)C2=O)c2c1c(C(=O)O)cn2Cc1ccccn1 target_of_assay="Mcl-1 (Homo sapiens (Human))" measured="< 0.2 nM"
compound="Cc1cc(N2C[C@@H](C)n3c(c(CCCOc4cc(C)c(Cl)c(C)c4)c4ccc(Cl)c(-c5c(C)nn(C)c5C)c43)C2=O)c2c(c1)cc(C(=O)O)n2Cc1ccccn1 [Example 714]" target_of_assay="Mcl-1 (Homo sapiens (Human))" measured="< 0.2 nM"
compound=Cc1cc(OCCCc2c3n(c4c(-c5c(C)nn(C)c5C)c(Cl)ccc24)[C@H](C)CN(c2c(C)ccc4cc(C(=O)O)n(C)c24)C3=O)cc(C)c1Cl target_of_assay="Mcl-1 (Homo sapiens (Human))" measured="< 0.2 nM"

Numbers sourced from patent US11596639B2.
